system: serotonin transporter (Homo sapiens, UniProt P31645)
Sequence (P31645 whole entry): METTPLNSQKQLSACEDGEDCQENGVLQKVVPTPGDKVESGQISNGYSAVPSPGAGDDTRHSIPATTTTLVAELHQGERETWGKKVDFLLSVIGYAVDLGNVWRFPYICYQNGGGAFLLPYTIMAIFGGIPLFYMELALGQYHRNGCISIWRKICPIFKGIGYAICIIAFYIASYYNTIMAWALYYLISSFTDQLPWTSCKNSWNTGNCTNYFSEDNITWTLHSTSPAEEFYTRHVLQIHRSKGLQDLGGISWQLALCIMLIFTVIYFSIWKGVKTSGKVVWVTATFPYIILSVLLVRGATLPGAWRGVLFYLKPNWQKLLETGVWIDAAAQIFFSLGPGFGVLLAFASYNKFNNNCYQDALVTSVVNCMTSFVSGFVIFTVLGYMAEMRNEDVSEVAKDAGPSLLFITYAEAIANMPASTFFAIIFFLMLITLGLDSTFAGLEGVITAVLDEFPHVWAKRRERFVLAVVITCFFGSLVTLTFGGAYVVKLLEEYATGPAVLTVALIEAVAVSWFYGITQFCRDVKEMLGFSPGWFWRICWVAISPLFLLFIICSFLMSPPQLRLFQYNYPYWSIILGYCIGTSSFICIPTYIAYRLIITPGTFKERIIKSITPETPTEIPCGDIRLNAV
assay summary: 5-HT uptake: displacement of serotonin ligands in vitro (methods of Gu et al.)
Type: binding
condition parameters: displacement of serotonin ligands in vitro; read-out: 5-HT Uptake, Uptake Profile (IC50)
attribute measured: IC50

compound	IC50
OC(CN1CCCC(CCc2ccc(OC(F)(F)F)cc2)C1)c1ccc(Cl)cc1 (stereo not shown)	< 1000 nM
OC(CN1CCCC(COc2ccc(C(F)(F)F)cc2)C1)C1(c2ccccc2OC(F)(F)F)CCC1 (single isomer, unassigned) [compound 225]	< 1000 nM
OC(CN1CCCC(COc2ccc(C(F)(F)F)cc2)C1)C1(c2ccc(OC(F)(F)F)cc2)CCC1 (stereo not shown)	< 1000 nM
CC(C)(CN1CCCC(COc2ccc(C(F)(F)F)cc2)C1)c1ccc(Cl)cc1 (stereo not shown)	> 1000 nM
FC(F)(F)c1ccc(OCC2CNCCCO2)cc1 (stereo not shown)	> 1000 nM
OC(CN1CCCC(CCc2ccccc2)C1)c1ccc(Cl)cc1 (single isomer, unassigned) [compound 143]	< 10 nM
OC[C@H]1[C@@H](COc2ccc(C(F)(F)F)cc2)CCCN1CC1(c2ccc(Cl)cc2)CCC1 (racemic) [compound 82]	< 1000 nM
CC(Oc1ccc(C(F)(F)F)cc1)C1CCCN(CC2(c3ccc(Cl)cc3)CCC2)C1 (stereo not shown)	< 1000 nM
O=C(N1CCCOC(COc2ccc(C(F)(F)F)cc2)C1)C1(c2ccc(Cl)cc2)CCC1 (stereo not shown)	> 1000 nM
FC(F)(F)c1ccc(OCCC2CCCN(CC3(c4ccc(Cl)cc4)CCC3)C2)cc1 (stereo not shown)	> 1000 nM

Respectfully, I request IC50 for each entry included below.
1. OC(CN1CCCC(COc2ccc(C(F)(F)F)cc2)C1)C1(c2ccccc2OC(F)(F)F)CCC1 (single isomer, unassigned) [compound 228]
2. CNC(CN1CCC[C@@H](CCc2ccccc2)C1)c1ccc(Cl)cc1 (stereo partly shown)
3. OC[C@H]1[C@@H](COc2ccc(C(F)(F)F)cc2)CCCN1CC1(c2ccc(Cl)cc2)CCC1 (single isomer, unassigned) [compound 132]

1. > 1000 nM
2. < 100 nM
3. < 1000 nM

Respectfully, I request IC50 for each entry included below.
1. CN(C)CC(Oc1ccc(C(F)(F)F)cc1)C1CCCN(CC2(c3ccc(Cl)cc3)CCC2)C1 (racemic) [compound 174]
2. OC(CN1CCCC(COc2ccccc2)C1)c1ccc(Cl)cc1 (stereo not shown)
3. FC(F)(F)c1ccc(OCC2CCCN(CC3(c4ccc(Cl)cc4)CCOCC3)C2)cc1 (stereo not shown)
4. Clc1ccc(C2(CN3CCC[C@@H](COc4ccc5c(c4)OCO5)C3)CCC2)cc1
5. FC(F)(F)c1ccc(COC[C@H]2CCCN(CC3(c4ccc(Cl)cc4)CCC3)C2)cc1
6. CC(O)(CN1CCCC(COc2ccccc2)C1)c1ccc(Cl)cc1 (stereo not shown)

["< 100 nM", "< 1000 nM", "< 1000 nM", "< 1000 nM", "> 1000 nM", "< 100 nM"]

Respectfully, I request IC50 for each entry included below.
1. FC(F)(F)c1ccc(CCC2CCCN(CC3(c4ccc(Cl)cc4)CCC3)C2)cc1 (stereo not shown)
2. COC(CN1CCC[C@@H](CCc2ccccc2)C1)c1ccc(Cl)cc1 (stereo partly shown)
3. FC(F)(F)c1ccc(OCC2CN(CC3(c4ccc(Cl)cc4)CCC3)CCCO2)cc1 (stereo not shown)
4. CC(O)(C[C@H]1CCCN(CC2(c3ccc(Cl)cc3)CCC2)C1)c1ccccc1 (stereo in doubt)
5. OC(CN1CCCC(CCc2ccc(C(F)(F)F)cc2)C1)C1(c2ccc(Cl)cc2)CCC1 (single isomer, unassigned) [compound 195]
6. O=C(CN1CCCC(COc2ccc(C(F)(F)F)cc2)C1)C1(c2ccc(Cl)cc2)CCC1 (stereo not shown)

1: < 1000 nM; 2: < 10 nM; 3: > 1000 nM; 4: > 1000 nM; 5: < 1000 nM; 6: > 1000 nM

Respectfully, I request IC50 for each entry included below.
1. Clc1ccc(C2(CN3CCCC(CCc4ccccc4)C3)CCC2)cc1 (stereo not shown)
2. OC(CN1CCCC(COc2ccc(C(F)(F)F)cc2)C1)C1(c2ccccc2OC(F)(F)F)CCC1 (single isomer, unassigned) [compound 227]
3. OC(CN1CCCC(COc2ccc(C(F)(F)F)cc2)C1)(c1ccccc1)C1CCCCC1 (stereo not shown)

1. > 1000 nM
2. < 1000 nM
3. > 1000 nM

Respectfully, I request IC50 for each entry included below.
1. Clc1ccc(C2(CN3CCC[C@H](COc4ccc5c(c4)OCO5)C3)CCC2)cc1
2. OC(CN1CCCC(COc2ccc(C(F)(F)F)cc2)C1)c1c[nH]c2ccc(Cl)cc12 (stereo not shown)
3. COc1ccccc1C1(C(O)CN2CCCC(COc3ccc(C(F)(F)F)cc3)C2)CCC1 (stereo not shown)

1. < 1000 nM
2. < 1000 nM
3. < 100 nM

###

system: dopamine transporter (Homo sapiens)
Sequence (Q01959 whole entry): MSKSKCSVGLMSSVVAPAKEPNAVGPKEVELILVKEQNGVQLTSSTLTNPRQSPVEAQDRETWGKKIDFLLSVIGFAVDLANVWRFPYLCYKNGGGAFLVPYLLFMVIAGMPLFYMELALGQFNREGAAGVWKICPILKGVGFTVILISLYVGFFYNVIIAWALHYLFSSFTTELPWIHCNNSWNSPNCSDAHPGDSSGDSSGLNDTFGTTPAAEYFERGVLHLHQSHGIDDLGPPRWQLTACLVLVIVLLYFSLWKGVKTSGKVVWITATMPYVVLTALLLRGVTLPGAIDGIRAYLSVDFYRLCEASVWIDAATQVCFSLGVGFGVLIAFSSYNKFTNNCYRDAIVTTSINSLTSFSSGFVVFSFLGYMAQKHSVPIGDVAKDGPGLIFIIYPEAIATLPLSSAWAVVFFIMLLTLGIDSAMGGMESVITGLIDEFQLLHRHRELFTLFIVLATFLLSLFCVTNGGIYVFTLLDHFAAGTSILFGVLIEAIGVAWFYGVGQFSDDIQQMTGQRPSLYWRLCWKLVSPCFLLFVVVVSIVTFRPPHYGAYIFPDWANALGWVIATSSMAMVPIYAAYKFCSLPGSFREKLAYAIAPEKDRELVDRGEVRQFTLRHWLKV
assay summary: DA uptake: displacement of dopamine ligands in vitro (methods of Gu et al.)
condition parameters: DA Uptake, Uptake Profile (IC50, nM), displacement of dopamine ligands in vitro
attribute measured: IC50

molecule	IC50
CO[C@@H](CN1CCC[C@H](COc2ccc(C(F)(F)F)cc2)C1)C1(c2ccc(Cl)cc2)CCC1 [compound 162]	< 100 nM

Respectfully, I request IC50 for each entry included below.
1. Clc1ccc(C2(CN3CCCC(COc4ccc5c(c4)OCO5)C3)CCC2)cc1 (centres unmarked) [compound 83]
2. OC(CN1CCCC(CCc2ccccc2)C1)c1ccc(Cl)cc1 (single isomer, unassigned) [compound 143]
3. O=C(CC1CCCN(CC2(c3ccc(Cl)cc3)CCC2)C1)c1ccccc1 (stereo in doubt) [compound 183]
4. NCC1CCCN(CC2(c3ccc(Cl)cc3)CCC2)C1 (centres unmarked) [compound 230]

1. < 100 nM
2. < 100 nM
3. < 1000 nM
4. < 100 nM

###

system: serotonin transporter (Homo sapiens)
assay summary: 5-HT uptake: displacement of serotonin ligands in vitro (methods of Gu et al.)
Type: binding
condition parameters: displacement of serotonin ligands in vitro; read-out: 5-HT Uptake, Uptake Profile (IC50)
attribute measured: IC50

molecule	result
O=C(N1CCCC(CO)C1)C1(c2ccc(Cl)cc2)CCC1 (stereo not drawn)	> 1 µM
OC(CN1CCCC(CCc2ccc(C(F)(F)F)cc2)C1)c1ccc(Cl)cc1 (single isomer, unassigned) [compound 154]	< 0.01 µM
CN(C[C@@H]1CCCN(CC2(c3ccc(Cl)cc3)CCC2)C1)c1ccccc1	> 1 µM

Respectfully, I request IC50 for each entry included below.
1. FC(F)(F)c1ccc(CCC2CCCN(CC3(c4ccccc4)CCC3)C2)cc1 (stereo not drawn)
2. O=C(CN1CCC[C@H](COc2ccc(C(F)(F)F)cc2)C1)C1(c2ccc(Cl)cc2)CCC1
3. O=C(CC1CCCN(CC2(c3ccc(Cl)cc3)CCC2)C1)c1ccccc1 (stereo in doubt)

1. < 1 µM
2. < 1 µM
3. < 1 µM

Respectfully, I request IC50 for each entry included below.
1. COC(CC1CCCN(CC2(c3ccc(Cl)cc3)CCC2)C1)c1ccccc1 (stereo in doubt)
2. OC(C[C@H]1CCCN(CC2(c3ccc(Cl)cc3)CCC2)C1)c1ccccc1 (stereo in doubt)
3. OC(CN1CCCC(COc2ccccc2)C1)C1(c2ccc(Cl)cc2)CCC1 (stereo not drawn)
4. O=C(CN1CCCC(CCc2ccc(C(F)(F)F)cc2)C1)c1ccc(Cl)cc1 (stereo not drawn)

1. < 1 µM
2. < 1 µM
3. < 1 µM
4. > 1 µM

Respectfully, I request IC50 for each entry included below.
1. OC(CN1CCCC(CCc2ccc(C(F)(F)F)cc2)C1)C1(c2ccc(Cl)cc2)CCC1 (single isomer, unassigned) [compound 194]
2. OC(CN1CCCC(CCc2ccccc2)C1)c1ccc(Cl)cc1 (single isomer, unassigned) [compound 142]
3. O[C@H](CN1CCC[C@@H](COc2ccc(C(F)(F)F)cc2)C1)C1(c2ccc(Cl)cc2)CCC1
4. FC(F)(F)c1ccc(OC2CCCN(CC3(c4ccc(Cl)cc4)CCC3)C2)cc1 (stereo not drawn)
5. FC(F)(F)c1ccc(OCC2CCCCN(CC3(c4ccc(Cl)cc4)CCC3)C2)cc1 (stereo not drawn)
6. OC(CN1CCCC(COc2ccc(C(F)(F)F)cc2)C1)C1(c2ccc(C(F)(F)F)cc2)CCC1 (stereo not drawn)
7. COc1ccc(C2(CN3CCC[C@H](COc4ccc(OC(F)(F)F)cc4)C3)CCC2)cc1

< 1 µM
< 0.1 µM
< 1 µM
> 1 µM
> 1 µM
> 1 µM
< 1 µM

Respectfully, I request IC50 for each entry included below.
1. O=C(CN1CCC[C@@H](COc2ccc(C(F)(F)F)cc2)C1)C1(c2ccc(Cl)cc2)CCC1
2. O[C@H](CN1CCC[C@H](COc2ccc(C(F)(F)F)cc2)C1)C1(c2ccc(Cl)cc2)CCC1
3. OC(CN1CCCC(CCc2ccc(C(F)(F)F)cc2)C1)c1ccc(Cl)cc1 (single isomer, unassigned) [compound 153]
4. O[C@@H](CN1CCC[C@H](COc2ccc(C(F)(F)F)cc2)C1)C1(c2ccc(Cl)cc2)CCC1

1: < 1 µM; 2: < 1 µM; 3: < 0.01 µM; 4: < 1 µM

Respectfully, I request IC50 for each entry included below.
1. COc1ccccc1C1(C(O)CN2CCCC(COc3ccc4c(c3)OCO4)C2)CCC1 (stereo not drawn)
2. CC(CC1CCCN(CC2(c3ccc(Cl)cc3)CCC2)C1)c1ccccc1 (stereo in doubt)
3. OC(CN1CCCC(COc2ccc(OC(F)(F)F)cc2)C1)C1(c2ccc(Cl)cc2)CCC1 (stereo not drawn)
4. OC(CN1CCCC(COc2ccc(OC(F)(F)F)cc2)C1)C1(c2ccc(OC(F)(F)F)cc2)CCC1 (stereo not drawn)
5. OC[C@H]1[C@@H](COc2ccc(C(F)(F)F)cc2)CCCN1CC1(c2ccc(Cl)cc2)CCC1 (single isomer, unassigned) [compound 131]
6. CN(C)CC(Oc1ccc(C(F)(F)F)cc1)C1CCCN(C(=O)C2(c3ccc(Cl)cc3)CCC2)C1 (racemic)

< 1 µM
< 1 µM
< 1 µM
< 1 µM
< 1 µM
< 0.1 µM

Where these numbers come from: patent US7294637B2
